# Test system: Splenocyte
# measurement protocol: Immunostimulatory activity in C57BL/6 mouse splenocytes assessed as IFN-gamma release at 100 ng/ml after 72 hrs by ELISA relative to OCH
# Format: functional
Each item that follows carries a reported Activity.

{"smiles": "CCCCCCCCCCCCCCCCCCCCCCCC(=O)N[C@@H](CO[C@H]1O[C@H](CO)[C@H](O)[C@H](O)[C@H]1O)[C@H](O)[C@H](O)CCCCC", "unit tag": "%", "Activity": 100}
{"smiles": "CCCCCCCCCCCCCCCCCCCCCCC(=O)N[C@@H](CO[C@H]1O[C@H](CO)[C@H](O)[C@H](O)[C@H]1O)[C@H](O)[C@H](O)CCCCC", "unit tag": "%", "Activity": 93}
{"smiles": "CCCCCCCCCCCCCCCCCCCCCCC(=O)N[C@@H](CO[C@H]1O[C@H](CO)[C@H](O)[C@H](O)[C@H]1O)[C@H](O)[C@H](O)CCCC", "unit tag": "%", "Activity": 148}
{"smiles": "CCCCCCCCCCCCCCCCCCCCCCCCCCCC(=O)N[C@@H](CO[C@H]1O[C@H](CO)[C@H](O)[C@H](O)[C@H]1O)[C@H](O)[C@H](O)CCCCC", "unit tag": "%", "Activity": 761}
{"smiles": "CCCCCCCCCCCCCCCCCCCCCCCC(=O)N[C@@H](CO[C@H]1O[C@H](CO)[C@H](O)[C@H](O)[C@H]1O)[C@H](O)[C@H](O)CCC", "unit tag": "%", "Activity": 96}
{"smiles": "CCCCCCCCCCCCCCCCCCCCCCCCCC(=O)N[C@@H](CO[C@H]1O[C@H](CO)[C@H](O)[C@H](O)[C@H]1O)[C@H](O)[C@H](O)CCCCC", "unit tag": "%", "Activity": 504}

Sourced from ChEMBL document CHEMBL2069168
